assay: Selectivity ratio of CC50 for human MT2 cells to EC50 for HIV1 LAI infected human MT2 cells; format: ADME, cell-based; conditions: MT2 cells (CC50) and HIV1 LAI infected MT2 cells (EC50)
REPORTED ENDPOINT: selectivity ratio

COc1ccc2c(c1)OC/C=C/CCCCN(C[C@@H](O)[C@H](Cc1ccccc1)NC(=O)O[C@H]1CO[C@H]3OCC[C@H]31)S2(=O)=O    3200
CCC[C@@]1(CCc2ccccc2)CC(O)=C([C@H](CC)c2cccc(NS(=O)(=O)c3ccc(C(F)(F)F)cn3)c2)C(=O)O1    320
COc1ccc2c(c1)OCCC/C=C\CCCCN(C[C@@H](O)[C@H](Cc1ccccc1)NC(=O)O[C@H]1CO[C@H]3OCC[C@H]31)S2(=O)=O    8280
